Here the recorded viability, T/C is given for each entry.
- Tested on: 945468-187-T-J3-PDC spheroids with HUVEC/MSC, viability
- protocol text: Anticancer human tumor 945468-187-T-J3-PDC patient-derived rectal carcinoma cell line growth inhibition [PI3K]
- condition info: second compound 1 µM; first compound 10 µM; stronger effect = lower value
quantity kind: viability, T/C (%)

1. C=CC(=O)N1CCN(c2nc(=O)n(-c3c(C)ccnc3C(C)C)c3nc(-c4c(O)cccc4F)c(F)cc23)C(C)C1 (stereo not drawn) + CC(Nc1ncnc2nc[nH]c12)c1cc2cccc(Cl)c2c(=O)n1-c1ccccc1 | 95.8
2. CC1(C)CCC(Nc2ncc(C(F)(F)F)c(-c3c[nH]c4c(P(C)(C)=O)c(C#N)ccc34)n2)CN1 (stereo not drawn) + CC(Nc1ncnc2nc[nH]c12)c1cc2cccc(Cl)c2c(=O)n1-c1ccccc1 | 13.4
3. CNC(=O)c1ccc(N2C(=S)N(c3ccc(C#N)c(C(F)(F)F)c3)C(=O)C2(C)C)cc1F + CC(Nc1ccc2c(c1)OCCn1cc(N3C(=O)OCC3C(F)F)nc1-2)C(N)=O | 94.3

###

Here the recorded viability, T/C is given for each entry.
- Test system: 945468-187-T-J3-PDC spheroids with HUVEC/MSC, viability
- protocol text: Anticancer human tumor 945468-187-T-J3-PDC cell line growth inhibition [PI3K];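 note: spheroids exposed to agents for 7 days before viability read; 100% = DMSO vehicle control viability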
- condition info: second compound 10 µM; first compound 3.16 µM; stronger effect = lower value
quantity kind: viability, T/C (%)

1. Cn1ncc(Cl)c1-c1cc(C(=O)NC(CN)Cc2cccc(F)c2)sc1Cl (stereo not drawn) + CC(Nc1ncnc2nc[nH]c12)c1cc2cccc(Cl)c2c(=O)n1-c1ccccc1 | 35
2. C[C@@H](NC(=O)c1ncnc(N)c1Cl)c1ncc(C(=O)Nc2cc(C(F)(F)F)c(Cl)cn2)s1 + Cc1nc(NC(=O)N2CCCC2C(N)=O)sc1-c1ccnc(C(C)(C)C(F)(F)F)c1 | 61.9
3. CCCS(=O)(=O)Nc1ccc(F)c(C(=O)c2c[nH]c3ncc(-c4ccc(Cl)cc4)cc23)c1F + Cc1nc(NC(=O)N2CCCC2C(N)=O)sc1-c1ccnc(C(C)(C)C(F)(F)F)c1 | 41.5

###

- Test system: 945468-187-T-J3-PDC spheroids with HUVEC/MSC, viability
- protocol text: Anticancer human tumor 945468-187-T-J3-PDC cell line growth inhibition [PI3K]; active = viability on the fitted dose curve at most 10% of control; inactive = the rest;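 note: spheroids exposed to agents for 7 days before viability read; 100% = DMSO vehicle control viability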
- condition info: second compound 1 µM; first compound 1 µM
Classes used: active, inactive

1) C[C@@H](NC(=O)c1ncnc(N)c1Cl)c1ncc(C(=O)Nc2cc(C(F)(F)F)c(Cl)cn2)s1 + CC(Nc1ccc2c(c1)OCCn1cc(N3C(=O)OCC3C(F)F)nc1-2)C(N)=O | inactive
2) Cn1nccc1Nc1nccc(-c2ccn(C(CO)c3ccc(Cl)c(F)c3)c(=O)c2)n1 (stereo not given) + CC(Nc1ncnc2nc[nH]c12)c1cc2cccc(Cl)c2c(=O)n1-c1ccccc1 | inactive
3) C#Cc1c(F)ccc2cc(O)cc(-c3ncc4c(N5CC6CCC(C5)N6)nc(OCC56CCCN5CC(F)C6)nc4c3F)c12 (stereo not given) + COc1c(OCCCN2CCOCC2)ccc2c3n(c(=NC(=O)c4cnc(N)nc4)nc12)CCN3 | active
4) CNC(=O)c1ccc(N2C(=S)N(c3ccc(C#N)c(C(F)(F)F)c3)C(=O)C2(C)C)cc1F + COc1c(OCCCN2CCOCC2)ccc2c3n(c(=NC(=O)c4cnc(N)nc4)nc12)CCN3 | inactive
5) CC1(C)CCC(Nc2ncc(C(F)(F)F)c(-c3c[nH]c4c(P(C)(C)=O)c(C#N)ccc34)n2)CN1 (stereo not given) + CC(Nc1ncnc2nc[nH]c12)c1cc2cccc(Cl)c2c(=O)n1-c1ccccc1 | inactive

###

- Test system: 945468-187-T-J3-PDC spheroids with HUVEC/MSC, viability
- protocol text: Anticancer human tumor 945468-187-T-J3-PDC cell line growth inhibition [PI3K];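 note: spheroids exposed to agents for 7 days before viability read; 100% = DMSO vehicle control viability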
- condition info: second compound 0.0316 µM; first compound 1 µM; stronger effect = lower value
- Source text: Combinatorial screen of targeted agents with the PI3K inhibitors inavolisib, alpelisib, duvelisib, and copanlisib in multi-cell type tumor spheroids A high-throughput screen of multi-cell type tumor spheroids was designed to identify active combinations of targeted small molecules and PI3K pathway inhibitors. […] Compounds. […] If the clinical Cmax for an agent had not been determined, the highest concentration tested was 10 microM. […]
Here the recorded viability, T/C is given for each entry.
quantity kind: viability, T/C (%)

1. CCN1CCN(Cc2ccc(Nc3ncc(F)c(-c4cc(F)c5nc(C)n(C(C)C)c5c4)n3)nc2)CC1 + CC(Nc1ccc2c(c1)OCCn1cc(N3C(=O)OCC3C(F)F)nc1-2)C(N)=O | 53
2. C[C@@H](NC(=O)c1ncnc(N)c1Cl)c1ncc(C(=O)Nc2cc(C(F)(F)F)c(Cl)cn2)s1 + CC(Nc1ncnc2nc[nH]c12)c1cc2cccc(Cl)c2c(=O)n1-c1ccccc1 | 101
3. CCCS(=O)(=O)Nc1ccc(F)c(C(=O)c2c[nH]c3ncc(-c4ccc(Cl)cc4)cc23)c1F + CC(Nc1ccc2c(c1)OCCn1cc(N3C(=O)OCC3C(F)F)nc1-2)C(N)=O | 94.3
4. CC1(C)CCC(Nc2ncc(C(F)(F)F)c(-c3c[nH]c4c(P(C)(C)=O)c(C#N)ccc34)n2)CN1 (stereo not drawn) + CC(Nc1ncnc2nc[nH]c12)c1cc2cccc(Cl)c2c(=O)n1-c1ccccc1 | 68.1
5. CC1(C)CCC(Nc2ncc(C(F)(F)F)c(-c3c[nH]c4c(P(C)(C)=O)c(C#N)ccc34)n2)CN1 (stereo not drawn) + Cc1nc(NC(=O)N2CCCC2C(N)=O)sc1-c1ccnc(C(C)(C)C(F)(F)F)c1 | 85.5
6. CC(Cn1ccc(-c2ccc(C#N)c(Cl)c2)n1)NC(=O)c1cc(C(C)O)[nH]n1 (stereo not drawn) + CC(Nc1ncnc2nc[nH]c12)c1cc2cccc(Cl)c2c(=O)n1-c1ccccc1 | 91.3
7. Cn1nccc1Nc1nccc(-c2ccn(C(CO)c3ccc(Cl)c(F)c3)c(=O)c2)n1 (stereo not drawn) + CC(Nc1ccc2c(c1)OCCn1cc(N3C(=O)OCC3C(F)F)nc1-2)C(N)=O | 122
8. CCN1CCN(Cc2ccc(Nc3ncc(F)c(-c4cc(F)c5nc(C)n(C(C)C)c5c4)n3)nc2)CC1 + CC(Nc1ncnc2nc[nH]c12)c1cc2cccc(Cl)c2c(=O)n1-c1ccccc1 | 79.2
9. C#Cc1c(F)ccc2cc(O)cc(-c3ncc4c(N5CC6CCC(C5)N6)nc(OCC56CCCN5CC(F)C6)nc4c3F)c12 (stereo not drawn) + CC(Nc1ncnc2nc[nH]c12)c1cc2cccc(Cl)c2c(=O)n1-c1ccccc1 | 110
10. CC(C)NCC(C(=O)N1CCN(c2ncnc3c2C(C)CC3O)CC1)c1ccc(Cl)cc1 (stereo not drawn) + CC(Nc1ccc2c(c1)OCCn1cc(N3C(=O)OCC3C(F)F)nc1-2)C(N)=O | 90.9
11. CC(C)NCC(C(=O)N1CCN(c2ncnc3c2C(C)CC3O)CC1)c1ccc(Cl)cc1 (stereo not drawn) + CC(Nc1ncnc2nc[nH]c12)c1cc2cccc(Cl)c2c(=O)n1-c1ccccc1 | 78.9
12. Cn1nccc1Nc1nccc(-c2ccn(C(CO)c3ccc(Cl)c(F)c3)c(=O)c2)n1 (stereo not drawn) + Cc1nc(NC(=O)N2CCCC2C(N)=O)sc1-c1ccnc(C(C)(C)C(F)(F)F)c1 | 119
13. CCN1CCN(Cc2ccc(Nc3ncc(F)c(-c4cc(F)c5nc(C)n(C(C)C)c5c4)n3)nc2)CC1 + COc1c(OCCCN2CCOCC2)ccc2c3n(c(=NC(=O)c4cnc(N)nc4)nc12)CCN3 | 22.3

###

- System: 945468-187-T-J3-PDC spheroids with HUVEC/MSC, viability
- protocol text: Anticancer human tumor 945468-187-T-J3-PDC cell line growth inhibition [PI3K];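 note: spheroids exposed to agents for 7 days before viability read; 100% = DMSO vehicle control viability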
- condition info: second compound 0.316 µM; first compound 0.01 µM; stronger effect = lower value
Here the recorded viability, T/C is given for each entry.
quantity kind: viability, T/C

1) CC(C)n1nc(-c2ccc3oc(N)nc3c2)c2c(N)ncnc21 + Cc1nc(NC(=O)N2CCCC2C(N)=O)sc1-c1ccnc(C(C)(C)C(F)(F)F)c1 | 121%
2) Cn1ncnc1[C@H]1c2n[nH]c(=O)c3cc(F)cc(c23)N[C@@H]1c1ccc(F)cc1 + Cc1nc(NC(=O)N2CCCC2C(N)=O)sc1-c1ccnc(C(C)(C)C(F)(F)F)c1 | 118%
3) CC(C)n1nc(-c2ccc3oc(N)nc3c2)c2c(N)ncnc21 + CC(Nc1ncnc2nc[nH]c12)c1cc2cccc(Cl)c2c(=O)n1-c1ccccc1 | 97.1%
4) CC(=O)c1c(C)c2cnc(Nc3ccc(N4CCNCC4)cn3)nc2n(C2CCCC2)c1=O + CC(Nc1ncnc2nc[nH]c12)c1cc2cccc(Cl)c2c(=O)n1-c1ccccc1 | 94.5%
5) CC(C)n1nc(-c2ccc3oc(N)nc3c2)c2c(N)ncnc21 + COc1c(OCCCN2CCOCC2)ccc2c3n(c(=NC(=O)c4cnc(N)nc4)nc12)CCN3 | 17.6%
6) CC(=O)c1c(C)c2cnc(Nc3ccc(N4CCNCC4)cn3)nc2n(C2CCCC2)c1=O + Cc1nc(NC(=O)N2CCCC2C(N)=O)sc1-c1ccnc(C(C)(C)C(F)(F)F)c1 | 97.9%

Where do these numbers come from? They come from PubChem BioAssay AID1963968.
